Recorded values, source patent US10329289B2.

Target: human M4 muscarinic acetylcholine receptor (Homo sapiens, UniProt P08173)
Sequence (P08173 whole entry): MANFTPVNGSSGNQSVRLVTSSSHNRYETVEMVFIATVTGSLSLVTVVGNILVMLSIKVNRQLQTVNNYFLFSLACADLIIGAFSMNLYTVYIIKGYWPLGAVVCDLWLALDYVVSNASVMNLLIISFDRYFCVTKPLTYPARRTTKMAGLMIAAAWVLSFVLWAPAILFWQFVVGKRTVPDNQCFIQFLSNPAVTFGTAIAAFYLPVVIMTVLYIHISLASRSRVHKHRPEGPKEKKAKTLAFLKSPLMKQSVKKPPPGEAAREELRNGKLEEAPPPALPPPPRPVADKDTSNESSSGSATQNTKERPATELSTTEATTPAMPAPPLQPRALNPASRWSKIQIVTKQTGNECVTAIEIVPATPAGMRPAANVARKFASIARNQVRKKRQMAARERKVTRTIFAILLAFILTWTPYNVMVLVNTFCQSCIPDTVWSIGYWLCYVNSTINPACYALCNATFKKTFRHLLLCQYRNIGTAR
Experiment: human FLIPR-based M4 PAM assay (Ca2+ mobilization, CHO-K1 cells with human M4 receptor and Gαqi5)
Details: acetylcholine at 20% of maximum response, read-out: M4 PAM IP
pEC50: −log10 of the molar value.
Param threshold (6) applies to pEC50; output Yes when value >= threshold, No when value < threshold.

INSERT INTO assay_data (compound, class_assignment) VALUES
  ('Cc1cc2c(nc1N1CCC(Oc3cnc4[nH]nc(C)c4c3)CC1)CNC2=O [Example 197]', 'No'),
  ('Cc1cc2c(nc1N1CCC(Oc3ccc(F)nc3)CC1)CNC2=O [Example 91]', 'Yes'),
  ('Cc1cc2c(nc1N1CCC(Oc3ccc4c(c3)c(C)nn4CCO)CC1)CNC2=O [Example 153]', 'Yes'),
  ('Cc1cc2c(nc1N1CCC(Oc3ccc4[nH]nc(Br)c4c3)CC1)CNC2=O [Example 315]', 'Yes');

Next, consider the following compound.
Test whether the compound Cc1cc2c(nc1N1CCC(Oc3ccc4c(c3)CCCN4C)CC1)CNC2=O [Example 291] records pEC50 of 6 or higher. Yes

---

Would you kindly list pEC50 for each of these compounds?
Biological target: human M4 muscarinic acetylcholine receptor (Homo sapiens, UniProt P08173)
Test: human FLIPR-based M4 PAM assay (Ca2+ mobilization, CHO-K1 cells with human M4 receptor and Gαqi5)
Details: acetylcholine at 20% of maximum response, read-out: M4 PAM IP
Give bare numbers, as −log10 of the molar value.

Recorded results for 3 compounds are shown here.
INSERT INTO results (compound, obs_value) VALUES
  ('Cc1cc2c(nc1N1CCC(OCC3(C(F)(F)F)CC3)CC1)CNC2=O', 6.58),
  ('COc1ccc(OC2CCN(c3nc4c(cc3C3CC3)C(=O)NC4)CC2)cn1', 5.97),
  ('CCc1cc2c(nc1N1CCC(Oc3cccnc3)CC1)CNC2=O', 6.64);

Quick request: pEC50 for each listed item, please.
1. Cc1cc2c(nc1N1CCC(Oc3ccc4c(c3)COC4)CC1)CN(C)C2=O
2. Cc1cc2c(nc1N1CCC(Oc3ccc4c(c3)C(=O)N(C)CC4)CC1)CNC2=O
3. COc1ccc(O[C@@H]2CCN(c3nc4c(cc3C)C(=O)N(C)[C@H]4CO)C[C@H]2F)cn1 [Example 281A]

7.52
6.41
5.09

Quick request: pEC50 for each listed item, please.
1. Cc1cc2c(nc1N1CC[C@@H](Oc3ccc4c(c3)COC4)[C@@H](F)C1)[C@@H](CO)N(C)C2=O
2. Cc1cc2c(nc1N1CC[C@@H](Oc3ccc4c(c3)COC4)[C@@H](F)C1)[C@H](CO)N(C)C2=O
3. Cc1cc2c(nc1N1CCC(Oc3ccccc3)CC1)CN(C1CC1)C2=O
4. Cc1cc2c(nc1N1CCC(Oc3ccc4c(c3)CCNC4)CC1)CNC2=O
5. Cc1c(N2CCC(Oc3ccc(F)cc3)CC2)nc2c(c1C)C(=O)N(C)[C@@H]2CO

1. 7.72
2. 5.47
3. 6.83
4. 6.50
5. 7.52

Quick request: pEC50 for each listed item, please.
1. Cc1cc2c(nc1N1CCC(Oc3ccc4c(c3)CN(C)C4)CC1)CNC2=O
2. Cc1cc2c(nc1N1CCC(Oc3ccc4ocnc4c3)CC1)CNC2=O
3. CCOc1ccc(OC2CCN(c3nc4c(cc3C)C(=O)N[C@@H]4CCO)CC2)cn1 (single isomer, unassigned) [Example 234B]
4. Cc1cc2c(nc1N1CCC(Oc3cccc(C#N)c3)CC1)CN(CCO)C2=O
5. COc1ccc(OC2CCN(c3nc4c(cc3C)C(=O)N(C)[C@H]4CO)CC2)cn1 (single isomer, unassigned) [Example 273A]
6. CCc1cc2c(nc1N1CCC(Oc3cnc4c(c3)COC4)CC1)CNC2=O [Example 212A]
7. Cc1cc2c(nc1N1CCC(Oc3ccon3)CC1)CNC2=O

1: 6.45; 2: 7.16; 3: 7.11; 4: 7.44; 5: 5.35; 6: 6.94; 7: 5.24

Quick request: pEC50 for each listed item, please.
1. Cc1cc2c(nc1N1CCC(Oc3cncc(CO)c3)CC1)CNC2=O
2. Cc1c(N2CCC(OC[C@@]3(C)CC3(F)F)CC2)nc2c(c1C)C(=O)N(CCO)C2 [Example 265B]
3. COc1ccc(OC2CCN(c3nc4c(c(CO)c3C)C(=O)NC4)CC2)cn1
4. CCc1cc2c(nc1N1CCC(Oc3ccc4c(c3)OCC4)CC1)[C@H](CO)N(C)C2=O
5. Cc1cc2c(nc1N1CCC(OCC3CCOC3)CC1)CNC2=O (stereo not shown)
6. Cc1cc2c(nc1N1CCC(OCC(C)C)CC1)CNC2=O

1. 5.91
2. 6.91
3. 6.09
4. 5.91
5. 5.74
6. 6.51

Quick request: pEC50 for each listed item, please.
1. Cc1cc2c(nc1N1CCC(Oc3ccc(CO)cc3)CC1)CNC2=O
2. Cc1cc2c(nc1N1CCC(OCC3CC3(C)C)CC1)CNC2=O (stereo not shown)
3. Cc1cc2c(nc1N1CC[C@@H](Oc3cnc4c(c3)COC4)[C@@H](F)C1)CNC2=O
4. COc1ccc(O[C@H]2C[C@H]3CC[C@@H](C2)N3c2nc3c(cc2C)C(=O)NC3)cn1
5. C=Cc1c(C)c(N2CCC(Oc3ccc(OC)nc3)CC2)nc2c1C(=O)NC2

1: 7.49; 2: 6.16; 3: 7.12; 4: 6.10; 5: 6.20

Quick request: pEC50 for each listed item, please.
1. Cc1cc2c(nc1N1CCC(Oc3cnc4c(c3)COCC4)CC1)CN(C)C2=O
2. COc1ccc(OC2CCN(c3nc4c(c(C)c3C)C(=O)N(C)[C@H]4CO)CC2)cn1 [Example 344A]
3. Cc1cc2c(nc1N1CCC(Oc3ccc4[nH]nc(Cl)c4c3)CC1)CNC2=O

6.35
6.12
7.52

Quick request: pEC50 for each listed item, please.
1. Cc1cc2c(nc1N1CC[C@@H](Oc3ccc4c(c3)COC4)[C@@H](F)C1)CNC2=O
2. Cc1cc2c(nc1N1CCC(Oc3ccc4c(c3)CCOC4)CC1)CNC2=O

7.77
7.52
